Value source: ChEMBL document CHEMBL1126792

Tested on: Human immunodeficiency virus 1
Assay: Concentration required for antiviral activity in PBMC (human peripheral blood mononuclear cells) infected with HIV-1 strain LAV
Format: functional, organism-based
Details: Human immunodeficiency virus 1, PBMC
readout_type: EC50

1. O=c1[nH]c(=O)n([C@@H]2CS[C@@H](CO)O2)cc1I :: 112000 nM
2. Nc1nc(=O)n([C@H]2CS[C@@H](CO)O2)cc1I :: 1900 nM
3. O=c1[nH]c(=O)n([C@H]2CS[C@@H](CO)O2)cc1Br :: > 100000 nM
4. O=c1[nH]c(=O)n([C@H]2CS[C@@H](CO)O2)cc1I :: 29300 nM
5. Nc1nc(Cl)c2ncn([C@@H]3CS[C@@H](CO)O3)c2n1 :: 5600 nM
6. Cc1cn([C@@H]2CS[C@@H](CO)O2)c(=O)[nH]c1=O :: > 100000 nM
7. O=c1[nH]c(=O)n([C@H]2CS[C@@H](CO)O2)cc1F :: 6300 nM
8. OC[C@H]1O[C@@H](n2cnc3c(Cl)ncnc32)CS1 :: 480 nM
9. O=c1[nH]c(=O)n([C@@H]2CS[C@@H](CO)O2)cc1Cl :: > 100000 nM
10. OC[C@H]1O[C@@H](n2cnc3c(O)ncnc32)CS1 :: 50 nM
11. Nc1ccn([C@H]2CO[C@@H](CO)O2)c(=O)n1 :: 16 nM
12. OC[C@H]1O[C@H](n2cnc3c(O)ncnc32)CS1 :: > 100000 nM
13. Cc1cn([C@H]2CS[C@@H](CO)O2)c(=O)[nH]c1=O :: 11600 nM
14. Nc1nc(=O)n([C@@H]2CS[C@@H](CO)O2)cc1I :: 280 nM
15. Nc1nc(Cl)c2ncn([C@H]3CS[C@@H](CO)O3)c2n1 (racemic) :: 520 nM
16. Nc1nc(=O)n([C@@H]2CS[C@@H](CO)O2)cc1F :: 77500 nM
17. Cc1cn([C@H]2CS[C@@H](CO)O2)c(=O)nc1N :: 172 nM
18. CNc1ncnc2c1ncn2[C@H]1CS[C@@H](CO)O1 :: 1100 nM
19. Nc1nc2c(ncn2[C@H]2CO[C@@H](CO)O2)c(=O)[nH]1 :: 30 nM
20. Nc1nc(O)c2ncn([C@H]3CS[C@@H](CO)O3)c2n1 :: 830 nM
21. O=c1ccn([C@H]2CS[C@@H](CO)O2)c(=O)[nH]1 :: 94700 nM
22. Nc1ncnc2c1ncn2[C@H]1CS[C@@H](CO)O1 :: 280 nM
